- assaySystem: mushroom tyrosinase (DOPA oxidase activity) (Agaricus bisporus)
- Sequence (C7FF04 1-392): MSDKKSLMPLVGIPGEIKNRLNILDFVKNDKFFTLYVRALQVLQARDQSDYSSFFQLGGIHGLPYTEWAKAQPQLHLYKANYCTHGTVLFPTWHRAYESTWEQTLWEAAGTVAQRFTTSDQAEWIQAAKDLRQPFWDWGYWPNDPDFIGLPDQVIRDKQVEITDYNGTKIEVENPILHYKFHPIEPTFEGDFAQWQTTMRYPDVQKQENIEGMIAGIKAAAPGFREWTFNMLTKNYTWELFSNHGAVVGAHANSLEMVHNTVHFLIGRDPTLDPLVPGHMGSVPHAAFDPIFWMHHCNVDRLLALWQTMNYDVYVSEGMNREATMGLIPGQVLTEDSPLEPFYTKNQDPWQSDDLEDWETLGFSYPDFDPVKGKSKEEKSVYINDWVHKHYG
- Sequence (G1K3P4 1-150 partner): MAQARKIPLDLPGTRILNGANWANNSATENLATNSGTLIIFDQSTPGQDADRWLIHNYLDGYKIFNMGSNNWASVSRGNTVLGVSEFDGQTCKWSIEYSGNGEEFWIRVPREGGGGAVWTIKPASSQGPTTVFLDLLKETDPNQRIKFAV
pIC50: −log10 of the molar value.

molecule | pIC50
O=C(O)Cc1ccc(O)cc1O [2,4-DHPAA] | ~2.22
